- System: MCP-1
- assayNotes: In Vitro MCP-1 Activity Assay
- Assay type: cell-based
- runParameters: Endothelial cell; human endothelial cells, TNF-α (1 ng/ml), approximately 16 hours; read-out: IC50 (amount of compound required to achieve a 50% reduction compared to control), MCP-1
readoutName: IC50

Query string: Report value only: IC50, MCP-1, COc1cc(OC)c(-c2cc3ccccc3s2)cc1/C=C/C(=O)c1ccc(C(=O)O)cc1 [Compound 3]
Result string: > 10 µM

====

- Test system: VCAM-1
- assayNotes: In Vitro VCAM-1 Assay (TNF-α stimulated HAEC or HPAEC, cell ELISA)
- Assay type: cell-based, human
- runParameters: TNF-α (1 ng/ml) stimulated HAEC or HPAEC, approximately 16 hours
readoutName: IC50

Query string: Annotate the molecule COc1cc(OC)c(-c2cc3ccccc3s2)cc1/C=C/C(=O)c1ccccc1C(=O)O [Example 7] with its measured IC50.
Result string: < 1000 nM

====

Assignment: determine reported melting point for the given compounds.

Query string: Please supply the value of reported melting point for the item `COCCOCCOc1cc(OC)c(/C=C/C(=O)c2ccc(C(=O)O)cc2)cc1-c1cccs1`
Result string: 174 to 175 °C

Query string: Return reported melting point. Input compound: `COc1cc(OCCCN2CCOCC2)c(/C=C/C(=O)c2ccc(S(N)(=O)=O)cc2)cc1-c1cccs1`
Result string: 193 to 196 °C

Query string: Please list melting point recorded for the compound `COc1cc(OC)c(-c2cc3ccccc3[nH]2)cc1/C=C/C(=O)c1ccc(C(=O)O)cc1`
Result string: 210 to 212 °C

Query string: Answer with reported melting point of `COc1cc(OC)c(-c2nc3ccccc3[nH]2)cc1/C=C/C(=O)c1ccc(C(=O)O)cc1.Cl`
Result string: > 240 °C (dec.)

Query string: Answer with the recorded melting point for the compound listed here: `COc1cc(OCCN2CCOCC2)c(/C=C/C(=O)c2ccc(S(N)(=O)=O)cc2)cc1-c1cccs1`
Result string: 186 to 188 °C

Query string: Provide melting point value for the following compound: `COc1cc(OC(C)(C)C(=O)O)c(/C=C/C(=O)c2ccc(C(=O)O)cc2)cc1-c1cccs1`
Result string: 223 to 225 °C

Query string: Give the reported value of melting point for this record: `COc1cc(OCC(CO)CO)c(-c2cccs2)cc1/C=C/C(=O)c1ccc(S(N)(=O)=O)cc1`
Result string: 191 to 192 °C

Query string: State, in one line, measured melting point of `COc1cc(OCC(CO)CO)c(/C=C/C(=O)c2ccc(C(=O)O)cc2)cc1-c1cccs1`
Result string: 219 to 220 °C

Query string: Given `COc1cc(OC)c(-c2c[nH]c(C3CC3)n2)cc1/C=C/C(=O)c1ccc(S(N)(=O)=O)cc1` , respond with its melting point.
Result string: 156 to 160 °C

Query string: Identify measured melting point corresponding to `COc1cc(OC)c(-c2cccs2)cc1/C=C/C(=O)c1ccc(C(=O)O)cc1`
Result string: 213 to 216 °C

Query string: Give the value of melting point reported for the following: COc1cc(OC)c(C2C=CCO2)cc1/C=C/C(=O)c1ccc(S(N)(=O)=O)cc1 (stereo not shown)
Result string: 194 to 195 °C

Query string: Identify melting point associated with the compound `O=C(/C=C/c1ccc(-c2cccs2)cc1)c1ccc2c(c1)OC(CO)(CO)O2`
Result string: 166 to 168 °C

Query string: Report measured melting point; entry is `O=C([O-])c1ccc(/C=C/C(=O)c2ccc(-c3cccs3)cc2)cc1.[Na+]`
Result string: > 260 °C

Query string: Give the measured melting point for `COc1cc(OC)c(-c2csc(C)n2)cc1/C=C/C(=O)c1ccc(C(=O)O)cc1`
Result string: 201 to 202 °C (dec.)

Query string: Input `COc1ccc(/C=C/C(=O)c2ccc(C(=O)O)cc2)c(-c2cccs2)c1` , output reported melting point.
Result string: 209 to 211 °C

Query string: For the compound `COc1cc(OC)c(-c2nc3cccnc3[nH]2)cc1/C=C/C(=O)c1ccc(S(N)(=O)=O)cc1` , report melting point.
Result string: > 260 °C
